# assay details: ASC/caspase-1 reporter retest in S. cerevisiae at one dose, specificity check for NALP1 project (AID 488857)
# cond: S. cerevisiae ASC/Caspase-1, beta-galactosidase luminescence, 24 h; at 10 µM; active compounds read high
Screen size: about 1,400 compounds; about 560 (40%) were called active. The set was probably picked from earlier hits. The list shows a part of the results.
Please mark YES if the recorded inhibition is equal to or greater than 70%, and NO if it falls below.

Quick check, inhibition >= 70%? CN1C2CCC1/C(=C/c1ccccn1)C(=O)/C2=C\c1ccccn1
YES

Quick check, inhibition >= 70%? CCCCCn1c(=O)c(C(=O)Nc2nc3ccccc3[nH]2)c(O)c2ccccc21
NO

Quick check, inhibition >= 70%? CC(C)CCn1c(=O)c(C(=O)NCc2ccco2)c(O)c2ccccc21
NO

Quick check, inhibition >= 70%? O=C(c1ccccc1)C(CN1CCCC1)c1ccccc1 (stereo unspecified)
NO

Quick check, inhibition >= 70%? C[C@H]1C[C@@H](C)C(=O)[C@@H]([C@H](O)CC2CC(=O)NC(=O)C2)C1
YES

----------
# assay details: ASC/caspase-1 reporter retest in S. cerevisiae at one dose, specificity check for NALP1 project (AID 488857)
# cond: S. cerevisiae ASC/Caspase-1, beta-galactosidase luminescence, 24 h; at 10 µM; active compounds read high
Among all 1,400 compounds or so, about 560 (40%) were called active. So high a share suggests a set chosen from earlier hits. This is one part of the list.
Please mark met if the recorded inhibition is equal to or greater than 60%, and not met if it falls below.

CC(C)NS(=O)(=O)c1ccc(OCC(=O)N2CCN(C)CC2)cc1; not met
N#CCCn1cc(C(=O)NCc2ccccc2)c(-c2ccccc2)n1; not met
Nc1cc(Cl)c2nonc2c1[N+](=O)[O-]; not met
c1ccc2sc(NC3=NCCN3)nc2c1; met
CCOc1cc(CNCCc2c[nH]c3ccccc23)cc(Cl)c1OCC; not met

Quick check, inhibition >= 60%? CC(Cc1ccccc1Sc1ccccc1)N(C)C (configuration not stated)
not met
